- Tested on: Plasmodium falciparum
- TEST_PROTOCOL: GSK_TCMDC: Inhibition of Plasmodium falciparum 3D7 in whole red blood cells, using parasite LDH activity as an index of growth. Test compounds present at 2uM
- Assay type: functional
RESULT_TYPE: Inhibition
Please make sure the unit comes right after the number.

Recorded Inhibition, per entry:
{"COMPOUND": "Cc1cccc2nc(-c3ccc(-c4ccc(CN5CCCC(N)C5)cc4)cc3)[nH]c12.O=C(O)C(F)(F)F (centres undefined)", "MEASUREMENT": "99%"}
{"COMPOUND": "COc1cc2c(Nc3ccc(NC(=O)c4ccccc4)cc3)ncnc2cc1OCCCN1CCOCC1", "MEASUREMENT": "99%"}
{"COMPOUND": "O=C(CNCC1CCCCC1)Nc1cc(C(F)(F)F)ccc1Cl", "MEASUREMENT": "86%"}
{"COMPOUND": "CCCCCCCN1CCC(CC(=O)Nc2ccnc3ccc(OC)cc23)CC1", "MEASUREMENT": "97%"}
{"COMPOUND": "CS(=O)(=O)O.CSc1ccc2ccccc2c1CCNCCCCNCCc1c(SC)ccc2ccccc12", "MEASUREMENT": "100%"}
{"COMPOUND": "Cc1cc(Nc2nc(Nc3cccc(Cl)c3)nc3ccccc23)n[nH]1", "MEASUREMENT": "100%"}
{"COMPOUND": "Cl.O=C(CNC1=NCCN1)Nc1ccc(NC(=O)Nc2ccc(NC(=O)CNC3=NCCN3)cc2)cc1", "MEASUREMENT": "90%"}
{"COMPOUND": "CSc1ccc(NC(=O)Nc2cc(C)nc3ccccc23)cc1Br", "MEASUREMENT": "100%"}

The observed Inhibition for NC(=O)C1Cc2ccccc2CN1CC(=O)Nc1ccccc1Sc1ccccc1 (centres undefined) when tested with Plasmodium falciparum stands at 100%

The observed Inhibition for O=C(Nc1ccc(OC2CCN(Cc3ccc(F)cc3)C2)cc1)c1ccco1.O=C(O)C(F)(F)F (centres undefined) when tested with Plasmodium falciparum stands at 88%

The observed Inhibition for COc1ccc(Cl)cc1N1CCN(CCCNC(=O)c2ccc(-c3nc4cc(Cl)c(C)cc4[nH]3)c(F)c2)CC1 when tested with Plasmodium falciparum stands at 99%

The observed Inhibition for CN1CCN(c2cc3c(cc2Cl)CCN3C(=O)Cc2ccc(NC(=O)Nc3cccc4ccccc34)cc2)CC1 when tested with Plasmodium falciparum stands at 92%

The observed Inhibition for C[C@@H](CNc1ccnc(Nc2ccc3[nH]c(=O)[nH]c3c2)n1)c1ccccc1 when tested with Plasmodium falciparum stands at 100%

The observed Inhibition for O=c1cc(NCCCNCc2cccc(Oc3ccccc3)c2)[nH]c2ccccc12 when tested with Plasmodium falciparum stands at 93%

The observed Inhibition for COc1ccc(C(=O)NCc2ccc(N)nc2C)cc1Nc1ncc(-c2cccc(N(C)C)c2)cn1 when tested with Plasmodium falciparum stands at 89%

The observed Inhibition for Cc1cc(NCCC(=O)Nc2ccccc2)nc(NCCc2ccc(F)cc2)n1.O=C(O)C(F)(F)F when tested with Plasmodium falciparum stands at 100%

The observed Inhibition for Cc1c(F)cc(C(=O)NC2CC2)cc1-c1ccc2c(cnn2S(=O)(=O)c2ccc(Cl)s2)c1 when tested with Plasmodium falciparum stands at 81%

The observed Inhibition for Cc1cc(N[C@@H](Cc2ccccc2)C(=O)NC2CCCC2)nc(NCCCOC(C)C)n1.O=C(O)C(F)(F)F when tested with Plasmodium falciparum stands at 92%

The observed Inhibition for O=C(NC1CCN(Cc2ccc(O)cc2)CC1)c1ccc(Cl)c(Cl)c1.O=C(O)C(F)(F)F when tested with Plasmodium falciparum stands at 95%

These measurements were taken from ChEMBL document CHEMBL1157539.
